Entry source: paper PMC9924185

Here the recorded %Accuracy is given for each entry.
conditions: plasma; Short term stability 8 h at room temperature; 900.00 ng/mL (HQC)
Reply with just the number (in %).

Quick one: %Accuracy for C=C1CC[C@@H]2[C@](C)(CO)[C@H](O)CC[C@@]2(C)[C@@H]1/C=C/C1=CCOC1=O [AP3, 14-deoxy-11, 12-didehydroandrographolide] ?
98.65

* * *

Here the recorded Measured concentration is given for each entry.
settings: plasma; Post preparative stability 24 h at autosampler; 500.00 ng/mL (MQC)
Reply with just the number (in ng/mL).

Some solved entries appear below for comparison.
C=C1CC[C@@H]2[C@](C)(CO[C@@H]3O[C@H](CO)[C@@H](O)[C@H](O)[C@H]3O)CCC[C@@]2(C)[C@@H]1CCC1=CCOC1=O [AP4, neoandrographolide] :: 485.59
C=C1CC[C@@H]2[C@](C)(CO)[C@H](O)CC[C@@]2(C)[C@@H]1/C=C/C1=CCOC1=O [AP3, 14-deoxy-11, 12-didehydroandrographolide] :: 471.70

Quick one: Measured concentration for C=C1CC[C@@H]2[C@](C)(CO)[C@H](O)CC[C@@]2(C)[C@@H]1CCC1=CCOC1=O [AP6, 14-deoxyandrographolide] ?
481.96

Quick one: Measured concentration for C=C1CC[C@@H]2[C@](C)(CO)[C@H](O)CC[C@@]2(C)[C@@H]1C/C=C1/C(=O)OC[C@H]1O [AP1, andrographolide] ?
463.01
